target: Raf and/or Mek kinase (human c-Raf, GST-MEK1) (Homo sapiens, UniProt P04049+Q02750); construct: Sf9 insect cell lysate containing full length 6his-tagged recombinant human c-Raf; 6His; E. coli (MEK1-GST, GST-MAPK); test: Raf/Mek kinase cascade assay; conditions: c-Raf dependent activation of GST-MEK and GST-MAPK, phospho-MAPK ELISA; (a)/(b)/(c) = average of two/three/four runs
Sequence (P04049 whole entry): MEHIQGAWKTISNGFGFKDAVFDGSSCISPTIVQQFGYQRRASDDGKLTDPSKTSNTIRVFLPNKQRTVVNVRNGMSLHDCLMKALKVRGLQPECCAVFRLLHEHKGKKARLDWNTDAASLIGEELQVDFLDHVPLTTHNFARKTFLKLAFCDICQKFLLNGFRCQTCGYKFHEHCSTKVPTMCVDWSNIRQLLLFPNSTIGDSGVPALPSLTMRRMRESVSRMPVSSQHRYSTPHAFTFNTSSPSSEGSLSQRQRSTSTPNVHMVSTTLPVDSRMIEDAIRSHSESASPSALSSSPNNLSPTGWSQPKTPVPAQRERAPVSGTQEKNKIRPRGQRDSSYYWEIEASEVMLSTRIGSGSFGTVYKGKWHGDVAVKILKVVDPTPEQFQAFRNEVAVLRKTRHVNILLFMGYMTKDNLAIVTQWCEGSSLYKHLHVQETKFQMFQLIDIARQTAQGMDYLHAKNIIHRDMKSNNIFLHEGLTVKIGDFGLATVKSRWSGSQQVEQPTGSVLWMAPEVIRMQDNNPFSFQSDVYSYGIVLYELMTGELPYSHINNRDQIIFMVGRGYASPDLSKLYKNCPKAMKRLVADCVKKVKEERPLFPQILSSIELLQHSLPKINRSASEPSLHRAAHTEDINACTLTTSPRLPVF
Sequence (Q02750 whole entry): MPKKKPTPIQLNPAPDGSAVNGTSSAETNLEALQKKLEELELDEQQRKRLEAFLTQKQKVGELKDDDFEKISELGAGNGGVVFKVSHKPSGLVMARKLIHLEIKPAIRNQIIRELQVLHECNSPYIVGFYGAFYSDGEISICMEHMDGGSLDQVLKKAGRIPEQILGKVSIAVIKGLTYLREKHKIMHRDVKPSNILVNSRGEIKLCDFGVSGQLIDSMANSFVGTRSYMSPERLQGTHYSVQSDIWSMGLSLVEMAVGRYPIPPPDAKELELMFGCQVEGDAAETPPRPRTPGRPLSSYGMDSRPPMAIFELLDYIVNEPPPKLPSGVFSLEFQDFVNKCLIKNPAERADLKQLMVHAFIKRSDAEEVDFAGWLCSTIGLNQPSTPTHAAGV
pIC50: −log10 of the molar value.
Rule: pIC50 of 7 or more gives criterion met; anything lower gives criterion not met.

>>> assigned_label("COc1cc2c(Nc3ccc(Sc4nccn4C)c(Cl)c3)c(C#N)cnc2cc1N1CCN(CCn2ccnc2)CC1")
"criterion not met"
>>> assigned_label("COc1cc(Nc2c(C#N)cnc3cc(OCCCN4CCC(N5CCCC5)CC4)c(OC)cc23)c(Cl)cc1Cl")
"criterion not met"
>>> assigned_label("COc1cc2c(Nc3ccc(Sc4nccn4C)c(Cl)c3)c(C#N)cnc2cc1N1CCN(C2CCN(C)CC2)CC1")
"criterion not met"
>>> assigned_label("COc1cc2c(Nc3ccc(Sc4nccn4C)c(Cl)c3)c(C#N)cnc2cc1N1CCC(N2CCOCC2)CC1")
"criterion not met"
>>> assigned_label("COc1cc2c(Nc3ccc(Sc4nccn4C)c(Cl)c3)c(C#N)cnc2cc1OCCCN1CCC(N2CCCC2)CC1")
"criterion met"
>>> assigned_label("COc1cc2c(Nc3ccc(Oc4ccccc4)cc3)c(C#N)cnc2cc1OCCN1CCC(N2CCCCC2)CC1")
"criterion met"
>>> assigned_label("CNc1cc2c(Nc3ccc(Sc4nccn4C)c(Cl)c3)c(C#N)cnc2cc1N1CCC(N2CCCC2)CC1")
"criterion not met"

Sourced from patent US7767671B2
